System: green foxtail (Setaria viridis)
Experiment: Test B pre-/postemergence plant response
Format: in vivo
Settings: Postemergence, 31 g ai/ha; scale 0 to 100 (0 no effect, 100 complete control)
# Plant response rating, Foxtail, Green annotations
# output: bare number, no unit

# compound-smiles, Plant response rating, Foxtail, Green
rows = [
    ("Cc1cccc(Cl)c1-n1c(-c2ccccc2)ncc(C(=O)C2=C(O)CCCC2=O)c1=O", 45),
]

Give its Plant response rating, Foxtail, Green value. Item: Cc1cc(C)cc(-n2c(-c3ccccc3)ncc(C(=O)C3=C(O)CCCC3=O)c2=O)c1
50

Give its Plant response rating, Foxtail, Green value. Item: Cc1ccccc1-n1c(-c2cccc(Cl)c2)ncc(C(=O)C2=C(O)CCCC2=O)c1=O
85

Give its Plant response rating, Foxtail, Green value. Item: Cc1ccc(F)cc1-n1c(-c2ccccc2)ncc(C(=O)C2=C(O)CCCC2=O)c1=O
90

* * *

System: canarygrass (Phalaris minor)
Assay: Test B postemergence plant response
Format: in vivo
Details: Postemergence, 62 g ai/ha; scale 0 to 100 (0 no effect, 100 complete control)
property-label: Plant response rating, Canarygrass
# output: bare number, no unit

# molecule, Plant response rating, Canarygrass
measured = [
    ("CCCn1c(-c2ccsc2)ncc(C(=O)C2=C(O)C3CCC(C3)C2=O)c1=O (stereo not drawn)", 0),
]

Give its Plant response rating, Canarygrass value. Item: CCCCn1c(-c2cccc(F)c2)ncc(C(=O)C2=C(O)C3CCC(C3)C2=O)c1=O (stereo not drawn)
40

Give its Plant response rating, Canarygrass value. Item: COc1ccc(-n2c(-c3ccccc3)ncc(C(=O)C3=C(O)CCCC3=O)c2=O)cc1OC
0

Give its Plant response rating, Canarygrass value. Item: CCc1ccc(-n2c(-c3ccccc3)ncc(C(=O)C3=C(O)CCCC3=O)c2=O)cc1
55

Give its Plant response rating, Canarygrass value. Item: COCCn1c(-c2ccsc2)ncc(C(=O)C2=C(O)C3CCC(C3)C2=O)c1=O (stereo not drawn)
0

Give its Plant response rating, Canarygrass value. Item: O=C1CCCC(O)=C1C(=O)c1cnc(-c2ccc(F)cc2)n(C2CCCCC2)c1=O
30

* * *

Tested on: corn (Zea mays)
Assay: Test A pre-/postemergence plant response
Assay type: in vivo
Settings: Preemergence, 500 g ai/ha; visual injury, 0 to 100 scale (0 no effect, 100 complete control), approx. ten days
# Plant response rating, Corn annotations
# output: bare number, no unit

Example molecules with recorded Plant response rating, Corn:
# compound-smiles, Plant response rating, Corn
measured = [
    ("COCCn1c(-c2cccc(C)c2)ncc(C(=O)C2=C(O)CCCC2=O)c1=O", 20),
    ("O=C1CCCC(O)=C1C(=O)c1cnc(-c2ccsc2)n(-c2ccccc2)c1=O", 0),
    ("Cc1c(Cl)cccc1-n1c(-c2ccccc2)ncc(C(=O)C2=C(O)CCCC2=O)c1=O", 0),
]

Give its Plant response rating, Corn value. Item: CCCc1ncc(C(=O)C2=C(O)CCCC2=O)c(=O)n1Cc1cccc(OC(F)(F)F)c1
0

* * *

System: giant foxtail (Setaria faberii)
Experiment: Test B pre-/postemergence plant response
Format: in vivo
Settings: Postemergence, 62 g ai/ha; scale 0 (no effect) to 100 (complete control); 13 to 15 days
Text: […] Treated plants and controls were maintained in a greenhouse for 13 to 15 days, after which time all treated plants were visually evaluated and compared to controls. […]
# Plant response rating, Foxtail, Giant annotations
# output: bare number, no unit

Example molecules with recorded Plant response rating, Foxtail, Giant:
# molecule, test-system, observed
data = [
    ("Cc1ccccc1-n1c(-c2cccc(Cl)c2)ncc(C(=O)C2=C(O)CCCC2=O)c1=O [Compound 36]", "giant foxtail (Setaria faberii)", 95),
    ("Cc1cc(C)cc(-n2c(-c3ccccc3)ncc(C(=O)C3=C(O)CCCC3=O)c2=O)c1 [Compound 33]", "giant foxtail (Setaria faberii)", 80),
    ("O=C1CCCC(O)=C1C(=O)c1cnc(-c2ccccc2)n(-c2ccccc2F)c1=O [Compound 26]", "giant foxtail (Setaria faberii)", 60),
]

Proceeding to the next molecule to report its Plant response rating, Foxtail, Giant.
Give its Plant response rating, Foxtail, Giant value. Item: Cc1ccc(-n2c(-c3ccccc3)ncc(C(=O)C3=C(O)CCCC3=O)c2=O)cc1 [Compound 8]
100

* * *

Tested on: yellow nutsedge (Cyperus esculentus)
Experiment: Test B pre-/postemergence plant response
Type: in vivo
Conditions: Postemergence, 31 g ai/ha; 0 to 100 scale (0 no effect, 100 complete control)
property-label: Plant response rating, Nutsedge, Yellow
# output: bare number, no unit

Example compounds with recorded Plant response rating, Nutsedge, Yellow:
# compound, Plant response rating, Nutsedge, Yellow
measured = [
    ("CCCn1c(-c2cccc(C(F)(F)F)c2)ncc(C(=O)C2=C(O)CCCC2=O)c1=O [Compound 155]", 20),
    ("Cc1ccccc1-n1c(-c2cc(F)cc(F)c2)ncc(C(=O)C2=C(O)CCCC2=O)c1=O [Compound 159]", 40),
]

Proceeding to the next compound to report its Plant response rating, Nutsedge, Yellow.
Give its Plant response rating, Nutsedge, Yellow value. Item: CCCn1c(-c2cccc(Cl)c2)ncc(C(=O)C2=C(O)CCCC2=O)c1=O [Compound 190]
35

* * *

Tested on: woolly cupgrass (Eriochloa villosa)
Test: Test B pre-/postemergence plant response
Format: in vivo
Conditions: Postemergence, 125 g ai/ha; visual rating after 13 to 15 days, scale 0 (no effect) to 100 (complete control)
Doc: threshold 80 (exclusive). Items with Plant response rating, Cupgrass, Woolly beneath it return T; others return F.

# compound, qualitative-label
measured = [
    ("CCCn1c(-c2cccs2)ncc(C(=O)C2=C(O)CCCC2=O)c1=O [Compound 77]", "T"),
    ("CC(C)n1c(-c2ccccc2)ncc(C(=O)C2=C(O)CCCC2=O)c1=O [Compound 95]", "T"),
    ("CC(C)CC(=O)OC1=C(C(=O)c2cnc(-c3ccccc3)n(-c3ccccc3)c2=O)C(=O)CCC1 [Compound 83]", "F"),
    ("CCCCn1c(-c2ccccc2)ncc(C(=O)C2=C(O)CCCC2=O)c1=O [Compound 86]", "F"),
]

Does CCCCc1ncc(C(=O)C2=C(O)CCCC2=O)c(=O)n1-c1ccccc1 [Compound 42] have Plant response rating, Cupgrass, Woolly strictly under 80?
T

Does O=C1CCCC(OC(=O)C2CC2)=C1C(=O)c1cnc(-c2ccccc2)n(-c2ccccc2)c1=O [Compound 88] have Plant response rating, Cupgrass, Woolly strictly under 80?
F

Does O=C1CCCC(O)=C1C(=O)c1cnc(-c2ccccc2)n(-c2ccccc2F)c1=O [Compound 26] have Plant response rating, Cupgrass, Woolly strictly under 80?
F

Does O=C1CCCC(O)=C1C(=O)c1cnc(-c2ccccc2Br)n(-c2ccccc2)c1=O [Compound 71] have Plant response rating, Cupgrass, Woolly strictly under 80?
F

Does Cc1ccc(F)cc1-n1c(-c2ccccc2)ncc(C(=O)C2=C(O)CCCC2=O)c1=O [Compound 44] have Plant response rating, Cupgrass, Woolly strictly under 80?
F

Does O=C1CCCC(O)=C1C(=O)c1cnc(-c2cccc(Cl)c2)n(-c2ccc(Cl)cc2)c1=O [Compound 64] have Plant response rating, Cupgrass, Woolly strictly under 80?
F

Does CCCCc1ncc(C(=O)C2=C(O)CCCC2=O)c(=O)n1-c1cccc(C)c1 [Compound 63] have Plant response rating, Cupgrass, Woolly strictly under 80?
T

Does Cc1ccccc1-n1c(-c2cccc(Cl)c2)ncc(C(=O)C2=C(O)CCCC2=O)c1=O [Compound 36] have Plant response rating, Cupgrass, Woolly strictly under 80?
F

* * *

Test system: green foxtail (Setaria viridis)
Assay: Test B pre-/postemergence plant response
Assay type: in vivo
Details: Postemergence, 31 g ai/ha; 0 to 100 scale (0 no effect, 100 complete control)
property-label: Plant response rating, Foxtail, Green
# output: bare number, no unit

# compound, observed
measured = [
    ("Cc1ccc(Cl)cc1-n1c(-c2cccc(F)c2)ncc(C(=O)C2=C(O)CCCC2=O)c1=O", 30),
    ("CCCn1c(-c2ccsc2)ncc(C(=O)C2=C(O)C3CCC(C3)C2=O)c1=O (stereo not drawn)", 50),
]

Proceeding to the next compound to report its Plant response rating, Foxtail, Green.
Give its Plant response rating, Foxtail, Green value. Item: O=C1CCCC(O)=C1C(=O)c1cnc(-c2ccc(F)cc2)n(C2CCCCC2)c1=O
5

* * *

# Plant response rating, Ragweed annotations
Tested on: ragweed (common ragweed, Ambrosia elatior)
Assay: Test B pre-/postemergence plant response
Type: in vivo
Details: Postemergence, 31 g ai/ha; 0 to 100 scale (0 no effect, 100 complete control)
# output: bare number, no unit

# molecule, Plant response rating, Ragweed
rows = [
    ("O=C1CCCC(O)=C1C(=O)c1cnc(-c2cc(F)cc(F)c2)n(C2CCCCC2)c1=O", 98),
    ("O=C1CCCC(O)=C1C(=O)c1cnc(-c2cccs2)n(C2CCCCC2)c1=O", 10),
    ("O=C1CCCC(O)=C1C(=O)c1cnc(-c2ccccc2)n(C2CCCC2)c1=O", 80),
    ("CCCn1c(-c2cccc(Br)c2)ncc(C(=O)C2=C(O)CCCC2=O)c1=O", 65),
    ("CCCn1c(-c2cc(C)cc(C)c2)ncc(C(=O)C2=C(O)CCCC2=O)c1=O", 65),
]

Give its Plant response rating, Ragweed value. Item: COCCCn1c(-c2cccc(Br)c2)ncc(C(=O)C2=C(O)CCCC2=O)c1=O
25

Give its Plant response rating, Ragweed value. Item: O=C(C1=C(O)C2CCC(C2)C1=O)c1cnc(-c2ccsc2)n(CC2CCCO2)c1=O (stereo not shown)
80

Give its Plant response rating, Ragweed value. Item: CCn1c(-c2ccccc2)ncc(C(=O)C2=C(O)C3CCC(C3)C2=O)c1=O (stereo not shown)
95

Give its Plant response rating, Ragweed value. Item: CCCCn1c(-c2cc(F)cc(F)c2)ncc(C(=O)C2=C(O)C3CCC(C3)C2=O)c1=O (stereo not shown)
95

Give its Plant response rating, Ragweed value. Item: CCCCn1c(-c2cccc(F)c2)ncc(C(=O)C2=C(O)C3CCC(C3)C2=O)c1=O (stereo not shown)
95
